# Tested on: MARK3
# Experimental Parameters: concentration: 1 μM, replicates: in singlicate; n = 1;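 further: KINOMEscan kinase panel screen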
In this section, each of the compounds is paired with its reported %Inh.
Field: numeric (%). Do not append units.

Please review the entries below; each comes with its answer.
Chemical String	Target Desc	%Inh / %
Fc1ccc(-c2ncn(CCCN3CCOCC3)c2-c2cccnc2)cc1	MARK3	0
Cc1cccc(Cn2ccn3c(=O)cc(N4CCOCC4)nc23)c1	MARK3	0
CN(C1=C(c2ccccc2)C(=O)NC1=O)c1ccccc1	MARK3	0
Cc1ccc(C(=O)NCC(N)=O)cc1-n1c(C)cc(OCc2ccc(F)cc2F)c(Br)c1=O	MARK3	10
CN1c2ccc(NCc3ccc(F)cc3)cc2-c2c(cnn2C)S1(=O)=O	MARK3	0

Task item: Entry O=c1cc(N2CCOCC2)nc2n(Cc3cccc(Cl)c3Cl)c(C3CC3)nn12 : reported %Inh = ?
Reply: 0

----------
# Tested on: EPHB2
# Experimental Parameters: concentration: 1 μM, replicates: in singlicate; n = 1
Rule: Condition met for %Inh not less than 20%, Condition not met for anything less.

As a guide, the following entries are already answered.
Molecule	Assigned Category
CN1c2ccc(CNc3ccc(F)cc3)cc2-c2c(cnn2C)S1(=O)=O	Condition not met
CC(C)Oc1ccc2c(-c3ccnc(Nc4ccc(N5CCN(C)CC5)cc4)n3)cnn2n1 [GW696155]	Condition not met
O=C1NC(=O)C(N2CCc3ccccc32)=C1c1cccc(Cl)c1 [SB-408010]	Condition not met
Cl.Nc1ncnc2occ(-c3ccc(NC(=O)Nc4cc(C(F)(F)F)ccc4F)cc3)c12 [SB-707548]	Condition met

// switching to the query molecule
Task item: Does Cc1nnc(-c2ccc3occ(-c4ccc(C(C)O)cc4)c3c2)o1 (centres unmarked) have a reported %Inh of at least 20%?
Reply: Condition not met

----------
# Test system: FAK
# Construct: gene PTK2
# Experimental Parameters: concentration: 1 μM, replicates: in singlicate; n = 1
Parameter Measured: %Inh
Form field: result (number plus unit)

Task item: Entry COc1ccc(Nc2ncc(C#N)c(Nc3ccccc3C(N)=O)n2)cc1N1CCN(C)CC1.Cl [GSK1558669] : reported %Inh = ?
Reply: 100%

Task item: Entry NCC(NC(=O)c1cc(-c2cn[nH]c2)c(-c2ccnc3[nH]ccc23)s1)c1ccccc1.O=C(O)C(F)(F)F.O=C(O)C(F)(F)F (centres unmarked) [GSK1325775] : reported %Inh = ?
Reply: 57%

Task item: Entry O=c1cc(N2CCOCC2)nc2n(Cc3cccc4ccccc34)ccn12 [GSK2333389] : reported %Inh = ?
Reply: 1%

Task item: Entry Cc1cn2c(=O)cc(N3CCOCC3)nc2n1Cc1cccc(Cl)c1Cl [GSK2334006] : reported %Inh = ?
Reply: 0%

Task item: Entry CNc1ncnc2[nH]ncc12 [SKF-18355] : reported %Inh = ?
Reply: 0%

----------
In this section, each of the molecules is paired with its reported %Inh.
# Test system: NEK1
# Experimental Parameters: concentration: 1 μM, replicates: in singlicate; n = 1
Field: numeric (%). Do not append units.

Please review the entries below; each comes with its answer.
Molecule	Measure Unit	%Inh
COc1ccc(Nc2nccc(N3CCC(NC(=O)Nc4cc(C)ccc4C)C3)n2)cc1 (stereo not drawn) [GSK1379741]	%	0
CC(=O)Nc1ccc(COc2ccc(Nc3ccnc4cc(-c5ccccn5)ccc34)cc2)cc1.Cl [GW440148]	%	0

Proceeding to the next molecule to report its %Inh.
Task item: Entry N#Cc1ccc(-c2cc(-c3c[nH]nc3-c3ccccn3)ccn2)cc1 [GW693028] : reported %Inh = ?
Reply: 0
